B1: INTS3 (parent)
chain: KKREFRFHPIKETVVEEPVDITPY

Variants of: B1
test method notes: protein stability index of a GFP-peptide fusion (GPS, HEK-293T) (PSI 1-6); higher = more stable;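 further: lentivirally expressed fusions sorted by FACS into six bins by GFP to DsRed ratio, PSI derived from sequencing read proportions per bin multiplied by bin number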
run parameters: c terminus: a fixed tail appended
measurement type: protein stability index
Keep the answer to the number alone.

Entry E16Y — recorded protein stability index = 2.36

protein stability index recorded for this variant, K2L , is 1.83

// sample V14N , its protein stability index was 1.99

Memo: K1Q , reported protein stability index: 1.97

The variant listed as P9S has a reported protein stability index of 2.04

The reported value for V14A in terms of protein stability index is 1.52

// protein stability index value for R6G : 4.57

Record K2N . Reported protein stability index: 1.82

Value of protein stability index reported for the variant E12N is 1.86

variant K11A , protein stability index observed: 1.82

Item: P18R | protein stability index: 2.78

Entry P18T — recorded protein stability index = 1.36

Per the records, this variant ( R6K ) has protein stability index equal to 4.23

Just so you know, measured protein stability index for D20N came out at 2.2

Record I21P , field protein stability index: 2.5

Noted for R6F : its protein stability index reads 2.57

Summary for this variant, E17G : protein stability index is 2.26

Lab book: protein stability index of E12C noted as 2.05

The variant listed as E16G shows protein stability index equal to 2.47

Query I21F yields protein stability index of 1.92

// R3V : protein stability index value = 1.92

The recorded protein stability index for entry E16A equals 1.73

# protein stability index of T22E = 1.97

protein stability index reported for this variant D20Y : 2.16

protein stability index for T13R is 1.79

For reference, reported protein stability index for V19W stands at 1.38

# protein stability index (variant: T13V ) is 2.12

Memo: Y24P , reported protein stability index: 2.17

// sample D20F , its protein stability index was 2.48

Just so you know, measured protein stability index for R6T came out at 4.38

Entry I21Y — recorded protein stability index = 1.56

In plain terms, E16T has a documented protein stability index of 2.16

Recorded result, P9I , protein stability index: 2.18

According to the records, this variant V19E displays protein stability index of 2.28

Reported protein stability index for E17I was 2.6

Given item K1Y , the value recorded as its protein stability index is 2.12

Just so you know, measured protein stability index for V19I came out at 1.51

protein stability index measured on P18Y = 3.25

For record F7C the listed protein stability index is 4.26

Item: E16K | protein stability index: 2.5

// T22S : protein stability index value = 2.33

Per the records, this variant ( V14F ) has protein stability index equal to 1.71

The variant identified as K11L registered its protein stability index at 2.72

Kindly note the recorded protein stability index for F5W , which is 2.56

Record R3Q , field protein stability index: 1.89

Measured protein stability index, K1L : 2.25

Data origin: the supplement of paper PMC10567573
